Tested on: ZEAMA Sileno
Assay: Seed treatment with safener; post-emergence herbicide application
Format: in vivo, maize
Details: HER dose 8 g a.i./ha, no safener, Final assessment
QUANTITY: HER effect (crop damage, herbicide without safener) (%)
The figure you give is taken to be in %; do not add the unit.

Use the examples below as a reference point.
INSERT INTO measurements (compound, result_value) VALUES
  ('CCOC(=O)C1C=CC(NC(=O)C2(C(F)(F)F)CC(c3ccccc3)=NO2)C1 (stereo not shown)', 78),
  ('CC1(C(=O)NC2CC=C(C(=O)NS(C)(=O)=O)C2)CC(c2cc(F)cc(F)c2)=NO1 (mixture of isomers)', 82),
  ('C=CC1(C(=O)NC2COC(C(=O)OC)C2)CC(c2cc(F)cc(F)c2)=NO1 (stereo not shown) [Example 1.69]', 92);

# context switch: different compound, same HER effect (crop damage, herbicide without safener)
Asked: Request: HER effect (crop damage, herbicide without safener), test system ZEAMA Sileno, entry CC1(C(=O)NC2COC(C(=O)OCc3cccc(F)c3)C2)CC(c2cc(F)cc(F)c2)=NO1 (mixture of isomers)
Given back: 22
